The following compounds are shown together with reported melting point values.

Use the examples below as a reference point.
>>> print(df.to_string())
                                   compound  assay_readout  experimental_value
0  O=C(NC(=O)c1c(OC(=O)C2CC2)cccc1OC(=O)C1CC1)NC1c2ccccc2-c2ccccc21 [Compound 29]  melting point       183 to 186 °C
1  CCC(=O)Oc1cccc(OC(=O)CC)c1C(=O)NC(=O)NC1c2ccccc2-c2ccccc21 [Compound 27]  melting point       165 to 167 °C
2  CC(C)(C)C(=O)Oc1cccc(O)c1C(=O)NC(=O)NC1c2ccccc2-c2ccccc21 [Compound 23]  melting point       187 to 189 °C

# ---- query compound ----
-- ask Which melting point is listed for CCCCCC(=O)Oc1cccc(OC(=O)CCCCC)c1C(=O)NC(=O)NC1c2ccccc2-c2ccccc21 [Compound 32] ?
-- reply 162 to 165 °C
